Target: hP2X2/3 (heterodimeric receptors formed by human purinergic P2X receptors subtype 2 and subtype 3) (Homo sapiens (Human), UniProt P56373+Q9UBL9)
Sequence (P56373 whole entry): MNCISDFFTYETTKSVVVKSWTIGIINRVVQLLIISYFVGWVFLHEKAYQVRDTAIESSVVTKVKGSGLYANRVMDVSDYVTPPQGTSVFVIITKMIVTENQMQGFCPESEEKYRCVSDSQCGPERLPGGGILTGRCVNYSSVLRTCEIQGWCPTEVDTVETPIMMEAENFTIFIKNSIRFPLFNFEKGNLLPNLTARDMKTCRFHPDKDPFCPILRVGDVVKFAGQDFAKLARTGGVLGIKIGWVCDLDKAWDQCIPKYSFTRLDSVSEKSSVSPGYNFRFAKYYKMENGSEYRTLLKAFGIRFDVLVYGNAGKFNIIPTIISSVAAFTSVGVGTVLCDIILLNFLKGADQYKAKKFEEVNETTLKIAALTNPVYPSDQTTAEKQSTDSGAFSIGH
Sequence (Q9UBL9 whole entry): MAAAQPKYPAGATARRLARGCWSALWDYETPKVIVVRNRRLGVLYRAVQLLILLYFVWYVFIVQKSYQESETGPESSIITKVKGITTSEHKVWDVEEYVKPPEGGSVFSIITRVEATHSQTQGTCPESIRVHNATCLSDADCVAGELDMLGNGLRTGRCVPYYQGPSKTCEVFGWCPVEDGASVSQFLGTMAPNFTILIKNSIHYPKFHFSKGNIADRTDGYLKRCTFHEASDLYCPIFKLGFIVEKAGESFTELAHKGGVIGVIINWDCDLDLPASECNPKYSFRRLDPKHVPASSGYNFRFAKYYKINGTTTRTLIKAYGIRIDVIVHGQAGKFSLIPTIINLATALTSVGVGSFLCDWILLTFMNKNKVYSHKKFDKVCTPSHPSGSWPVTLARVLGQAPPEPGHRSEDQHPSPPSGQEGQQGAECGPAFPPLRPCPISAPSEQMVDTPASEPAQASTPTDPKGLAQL
Experiment: FLIPR calcium assay, hP2X2/3 expressed in HEK293 cells (P2X2/3 receptor selectivity)
Assay type: cell-based
Conditions: HEK293 cells expressing hP2X2/3, agonist BZ-ATP 5 μM; unit inferred
Quantity Name: IC50

{"Compound Smiles": "COC(=O)N1CCO[C@@H](Cc2c(-c3c(F)cc(NC(=O)CCC(=O)O)cc3F)nc3cc(C)ccn23)C1", "Endpoint Result": "> 60 µM"}
{"Compound Smiles": "CC(=O)N1CCO[C@@H](Cc2c(-c3c(F)cc(-c4nnc[nH]4)cc3F)nc3cc(Cl)ccn23)C1", "Endpoint Result": "> 60 µM"}
{"Compound Smiles": "COC(=O)N1CCO[C@@H](Cc2c(-c3c(F)cc(-c4ccc(C#N)[nH]4)cc3F)nc3cc(C)ccn23)C1", "Endpoint Result": "> 60 µM"}
{"Compound Smiles": "COC(=O)N1CCO[C@@H](Cc2c(-c3c(F)cc(-c4cc[nH]n4)cc3F)nc3cc(C)ccn23)C1", "Endpoint Result": "21.6 µM"}

IC50 for "COC(=O)N1CCO[C@@H](Cc2c(-c3c(F)cc(-c4ncc[nH]4)cc3F)nc3cc(C)ccn23)C1" ? > 60 µM

And what about the molecule "COC(=O)N1CCO[C@@H](Cc2c(-c3c(F)cc(-c4ccccn4)cc3F)nc3cc(C)ccn23)C1" ? 29.8 µM

And what about the molecule "CC(=O)N1CCO[C@@H](Cc2c(-c3c(F)cc(S(N)(=O)=O)cc3F)nc3cc(C)ccn23)C1" ? 33.9 µM

And what about the molecule "CC(=O)N1CCO[C@@H](Cc2c(-c3c(F)cc(-n4ccnc4)cc3F)nc3cc(Cl)ccn23)C1" ? > 60 µM

And what about the molecule "COC(=O)N1CCO[C@@H](Cc2c(-c3cnc(-n4cccn4)cc3C)nc3cc(C)ccn23)C1" ? > 60 µM

And what about the molecule "COC(=O)N1CCO[C@@H](Cc2c(-c3c(F)cc(S(N)(=O)=O)cc3F)nc3cc(C)ccn23)C1" ? 36.8 µM

And what about the molecule "COC(=O)N1CCO[C@@H](Cc2c(-c3ncc(S(N)(=O)=O)nc3Cl)nc3cc(C)ccn23)C1" ? > 60 µM

And what about the molecule "CC(=O)N1CCO[C@@H](Cc2c(-c3c(F)cc(-c4nnc[nH]4)cc3F)nc3cc(C)ccn23)C1" ? > 60 µM

And what about the molecule "COC(=O)N1CCO[C@@H](Cc2c(-c3c(F)cc(N4CC=CC4=O)cc3F)nc3cc(C)ccn23)C1" ? > 60 µM

And what about the molecule "COC(=O)N1CCO[C@@H](Cc2c(-c3c(F)cc(-c4ccc[nH]4)cc3F)nc3cc(C)ccn23)C1" ? 14.3 µM

And what about the molecule "COC(=O)N1CCO[C@@H](Cc2c(-c3c(F)cc(NC(C)=O)cc3F)nc3cc(C)ccn23)C1" ? > 60 µM

###

Tested on: Male SD rats
Assay: Two-bottle dysgeusia test (quinine water vs normal water)
Type: in vivo, rat
Conditions: Table 8; rats, single intraperitoneal injection, 20 mg/kg, water intake within 15 min, 0.3 mM quinine
Method: All drinking water bottles were removed out 20 h before the start of the formal experiment, and all the animals were deprived of water until the start of the experiment. In the experiment, all the animals were randomly grouped and then subjected to a single intraperitoneal injection of a test compound or a vehicle before water was resupplied. The administration time was determined according to the Tmax of the test compound. […]
In plain terms, low Quinine/tap water* 100%, meaning strictly below 7%, gives TRUE, and everything else gives FALSE.

Some entries whose results are on file:
{"Compound": "CNC(=O)c1cc(F)c(-c2oc3cc(C)ccc3c2C[C@H]2CN(C(=O)OC)CCO2)c(F)c1", "Classification": "FALSE"}
{"Compound": "CCC(=O)c1ccn(-c2cc(F)c(-c3nc4cc(C)ccn4c3C[C@H]3CN(C(=O)OC)CCO3)c(F)c2)n1", "Classification": "TRUE"}
{"Compound": "CC(=O)N1CCO[C@@H](Cc2c(-c3c(F)cc(-c4nnc[nH]4)cc3F)nc3cc(C)ccn23)C1", "Classification": "TRUE"}
{"Compound": "COC(=O)N1CCO[C@@H](Cc2c(-c3c(F)cc(N)cc3F)nc3cc(Cl)ccn23)C1", "Classification": "TRUE"}
{"Compound": "COC(=O)N1CCO[C@@H](Cc2c(-c3c(F)cc(NC(C)=O)cc3F)nc3cc(C)ccn23)C1", "Classification": "TRUE"}

Hello, I'm reviewing records and need to know if Quinine/tap water* 100% of "CC(=O)N1CCO[C@@H](Cc2c(-c3c(F)cc(-n4ccnc4)cc3F)nc3cc(C)ccn23)C1" is below 7%. Could you check? TRUE

And what about the compound COc1cc(C(C)C)c(Oc2cnc(N)nc2N)cc1S(N)(=O)=O [Positive compound 2, reference compound] ? FALSE

###

Target: hP2X2/3 (heterodimeric receptors formed by human purinergic P2X receptors subtype 2 and subtype 3) (Homo sapiens (Human), UniProt P56373+Q9UBL9)
Assay: FLIPR calcium assay, hP2X2/3 expressed in HEK293 cells (P2X2/3 receptor selectivity)
Type: cell-based
Quantity Name: Folds of selectivity

Folds of selectivity for "CC(=O)N1CCO[C@@H](Cc2c(-c3c(F)cc(S(N)(=O)=O)cc3F)nc3cc(C)ccn23)C1" ? 18811

###

Target: hP2X3 (human purinergic P2X receptor subtype 3) (Homo sapiens (Human), UniProt P56373)
Experiment: FLIPR calcium assay, hP2X3 expressed in HEK293 cells
Type: cell-based
Settings: read-out: P2X3 IC50
IC50 for assorted compounds

{"Compound": "COC(=O)N1CCO[C@@H](Cc2c(-c3c(F)cc(NC(C)=O)cc3F)nc3cc(C(F)(F)F)ccn23)C1", "System Tested": "hP2X3 (human purinergic P2X receptor subtype 3) (Homo sapiens (Human), UniProt P56373)", "IC50": "50 to 200 nM"}
{"Compound": "CNC(=O)c1cc(F)c(-c2oc3cc(C)cnc3c2C[C@H]2CN(C(=O)OC)CCO2)c(F)c1", "System Tested": "hP2X3 (human purinergic P2X receptor subtype 3) (Homo sapiens (Human), UniProt P56373)", "IC50": "< 10 nM"}
{"Compound": "CNC1(c2cc(F)c(-c3nc4cc(C)ccn4c3C[C@H]3CN(C(=O)OC)CCO3)c(F)c2)CC1", "System Tested": "hP2X3 (human purinergic P2X receptor subtype 3) (Homo sapiens (Human), UniProt P56373)", "IC50": "10 to 50 nM"}
{"Compound": "COC(=O)N1CCO[C@@H](Cc2c(-c3c(F)cc(-c4ncc(C#N)o4)cc3F)nc3cc(C)ccn23)C1", "System Tested": "hP2X3 (human purinergic P2X receptor subtype 3) (Homo sapiens (Human), UniProt P56373)", "IC50": "< 10 nM"}
{"Compound": "COC(=O)N1CCO[C@@H](Cc2c(-c3c(F)cc(-c4ccc(C(=O)O)cn4)cc3F)nc3cc(C)ccn23)C1", "System Tested": "hP2X3 (human purinergic P2X receptor subtype 3) (Homo sapiens (Human), UniProt P56373)", "IC50": "50 to 200 nM"}

IC50 for "COC(=O)N1CCO[C@@H](Cc2c(-c3c(F)cc(NC(=O)c4ccc(C(=O)O)cc4)cc3F)nc3cc(C)ccn23)C1" ? 50 to 200 nM

And what about the compound "COC(=O)N1CCO[C@@H](Cc2c(-c3c(F)cc(-c4nc(C(F)(F)F)c[nH]4)cc3F)nc3cc(C)ccn23)C1" ? < 10 nM

###

half-life for assorted compounds
Assay: In vitro metabolic stability, human liver microsome
Format: in vitro ADME
Details: liver microsomes, 1 mg/mL liver microsome protein, 37° C., NA = essentially not metabolized, read-out: T1/2 in human liver microsome
Report only the number, with the unit h understood.

Solved entries (count: 5):
{"Compound": "COC(=O)N1CCO[C@@H](Cc2c(-c3c(F)cc(-c4cccn4C)cc3F)nc3cc(C)ccn23)C1", "Endpoint Result": 1.03}
{"Compound": "COC(=O)N1CCO[C@@H](Cc2c(-c3c(F)cc(N4CC=CC4=O)cc3F)nc3cc(C)ccn23)C1", "Endpoint Result": 13.8}
{"Compound": "COC(=O)Nc1cc(F)c(-c2nc3cc(C)ccn3c2C[C@H]2CN(C(=O)OC)CCO2)c(F)c1", "Endpoint Result": 4.34}
{"Compound": "COC(=O)N1CCO[C@@H](Cc2c(-c3c(F)cc(N4C(=O)CCC4=O)cc3F)nc3cc(C)ccn23)C1", "Endpoint Result": 4.22}
{"Compound": "CNC(=O)c1cc(F)c(-c2nc3cc(C)ccn3c2C[C@H]2CN(C(=O)OC)CCO2)c(F)c1 [Positive compound 1, reference compound]", "Endpoint Result": 24.2}

half-life for "COC(=O)N1CCO[C@@H](Cc2c(-c3c(F)cc(NC(C)=O)cc3F)nc3cc(C)ccn23)C1" ? 14.9

And what about the compound "COC(=O)N1CCO[C@@H](Cc2c(-c3c(F)cc(-c4ncc[nH]4)cc3F)nc3cc(C)ccn23)C1" ? 2.13

Sourced from patent US20240034729A9
